Target: 5,10-methylenetetrahydrofolate reductase (MTHFR) (Homo sapiens, UniProt P42898)
Construct: MTHFRFL aa 1–656
Sequence (P42898 whole entry, the tested form may be a part): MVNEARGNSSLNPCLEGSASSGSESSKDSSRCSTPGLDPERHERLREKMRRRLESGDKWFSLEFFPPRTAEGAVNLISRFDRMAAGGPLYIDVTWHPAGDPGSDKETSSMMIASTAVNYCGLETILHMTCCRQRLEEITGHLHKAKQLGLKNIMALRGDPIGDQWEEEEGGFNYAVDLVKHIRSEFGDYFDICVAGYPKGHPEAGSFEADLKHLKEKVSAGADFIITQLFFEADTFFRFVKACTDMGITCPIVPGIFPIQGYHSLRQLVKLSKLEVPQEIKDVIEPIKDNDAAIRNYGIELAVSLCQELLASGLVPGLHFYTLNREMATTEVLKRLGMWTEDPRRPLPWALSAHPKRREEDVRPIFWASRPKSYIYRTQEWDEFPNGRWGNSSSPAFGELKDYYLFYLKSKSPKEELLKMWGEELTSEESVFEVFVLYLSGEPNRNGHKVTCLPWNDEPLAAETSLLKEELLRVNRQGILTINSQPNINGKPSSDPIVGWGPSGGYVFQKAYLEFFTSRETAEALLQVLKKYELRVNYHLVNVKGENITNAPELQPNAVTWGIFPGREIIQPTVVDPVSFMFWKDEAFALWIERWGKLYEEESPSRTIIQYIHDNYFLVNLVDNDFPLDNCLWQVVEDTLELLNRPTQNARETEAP
Assay: ITC; cryo-EM structure at […] Å; DSF; HPLC activity assay
Type: binding
pKd: −log10 of the molar value.
readout_name: pKd

*Q* Write down the reported pKd of C[S+](CC[C@H](N)C(=O)[O-])C[C@H]1O[C@@H](n2cnc3c(N)ncnc32)[C@H](O)[C@@H]1O (stereo partly shown) , test system: 5,10-methylenetetrahydrofolate reductase (MTHFR) (Homo sapiens, UniProt P42898).
*A* 6.00 to 6.07

* * *

Molecular target: 5,10-methylenetetrahydrofolate reductase (MTHFR) (Homo sapiens)
Construct: MTHFRFL aa 1–656
Assay: ITC; cryo-EM structures at […] and […] Å
Assay type: binding
readout_name: Kd

*Q* So what Kd did `Nc1ncnc2c1ncn2[C@@H]1O[C@H](CSCC[C@H](N)C(=O)O)[C@@H](O)[C@H]1O` get with 5,10-methylenetetrahydrofolate reductase (MTHFR) (Homo sapiens)?
*A* 380 to 390 nM
